System: active TGF-β
assay-protocol: Active TGF-β level in lung tissue, bleomycin (BLM) mouse lung fibrosis model
Type: in vivo
condition-description: single intratracheal dose 3 mg/kg on Day 7, lung 24 h later; BLM model group = 100.00
Bridge positions count the residues as written; N and C are the ends. Ends that are not written are not given here.
# active TGF-β content in lung tissue, ratio to model group, Mean(%) per entry
measurement-type: active TGF-β content in lung tissue, ratio to model group, Mean(%)

* Ac-Thr-Gln-Asp-Ala-Glu-Asp-Asn-Thr-Ala-Ser-Phe-NH2 (Ac-TQDAEDNTASF-NH2) [SEQ ID NO: 31] | 83.22
* cyclo[Thr-Gln-Asp-Pro-Glu-Asp-Asn] (TQDPEDN; cyclic peptide; MISC_FEATURE - head-to-tail backbone cyclization) [SEQ ID NO: 41] | 74.12
* Ac-TQDPAEDN-NH2 [SEQ ID NO: 48, Ac-Thr-Gln-Asp-Pro-Ala-Glu-Asp-Asn-NH2] | 82.97
* Ac-Thr-Gln-Asp-Pro-Ala-Glu-Asp-NH2 (Ac-TQDPAED-NH2) [SEQ ID NO: 47] | 83.78
* Ac-TQDPEDNTAS-NH2 [SEQ ID NO: 26] | 83.44
* Ac-Thr-Gln-Asp-Ala-Glu-Asp-Asn-Thr-Val-NH2 (Ac-TQDAEDNTV-NH2) [SEQ ID NO: 17] | 71.36
* Ac-Thr-Gln-Asp-Ala-Glu-Asp-NH2 (Ac-TQDAED-NH2) [SEQ ID NO: 04] | 74.10
* Ac-TQDAEDPTA-NH2 [SEQ ID NO: 22] | 82.72
* Ac-TQDAEDNTAS-NH2 [SEQ ID NO: 24] | 76.35
* Ac-Ser-Gln-Asp-Ala-Glu-Asp-Asn-NH2 (Ac-SQDAEDN-NH2) [SEQ ID NO: 07] | 71.66
* Ac-Thr-Gln-Asp-Ala-Glu-Asp-Leu-NH2 (Ac-TQDAEDL-NH2) [SEQ ID NO: 12] | 81.77
* Ac-TQDAEDN-NH2 [SEQ ID NO: 06, Ac-Thr-Gln-Asp-Ala-Glu-Asp-Asn-NH2] | 76.76
* Ac-TQDPEDN-NH2 [SEQ ID NO: 14, Ac-Thr-Gln-Asp-Pro-Glu-Asp-Asn-NH2] | 92.49
* Ac-Thr-Asn-Asp-Ala-Glu-Asp-Asn-NH2 (Ac-TNDAEDN-NH2) [SEQ ID NO: 08] | 80.31
* Ac-Thr-Glu-Asp-Ala-Glu-Asp-Asn-NH2 (Ac-TEDAEDN-NH2) [SEQ ID NO: 09] | 72.26
* Ac-Gln-Asp-Ala-Glu-Asp-Asn-NH2 (Ac-QDAEDN-NH2) [SEQ ID NO: 05] | 74.15
* Thr-Gln-cyclo[Asp-Ala-Glu-Asp-Asn-Lys] (TQDAEDNK; lactam 3-8) [SEQ ID NO: 42] | 80.59
* Ac-TQDAEDPTAS-NH2 [SEQ ID NO: 25] | 86.63
